tested on: LU99A; assay: relative viability (nuclei count vs DMSO), 5 days (fraction); higher = more cells survive; conditions: first compound 8 µM
parameter measured: relative viability
Enter a number only.

Fill in the blank: the reported relative viability of O=c1cc(-c2cccc3c2Sc2ccccc2S3)oc(N2CCOCC2)c1 + Nc1ncn([C@H]2C[C@H](O)[C@@H](CO)O2)c(=O)n1 [Decitabine] (partner 2 µM) is ____.
1.18

Moving on to O=c1cc(-c2cccc3c2Sc2ccccc2S3)oc(N2CCOCC2)c1 + COc1cc2c(Oc3ccc(NC(=O)C4(C(=O)Nc5ccc(F)cc5)CC4)cc3F)ccnc2cc1OCCCN1CCOCC1 [Foretinib] (partner 0.25 µM)
1.13

Queued: O=c1cc(-c2cccc3c2Sc2ccccc2S3)oc(N2CCOCC2)c1 + C[C@]1(O)C[C@@H](c2nc(-c3ccc4ccc(-c5ccccc5)nc4c3)c3c(N)nccn32)C1 [Linsitinib] (partner 1 µM)
0.608
